- Test system: lymphocyte proliferation in the human MLR
- Type: cell-based
- SETTINGS: peptide 12.5 to 100 μM; assays of 1/24, 1/31, 3/6, 4/17, 5/2; one symbol per assay
Bridge positions count the residues as written; N and C are the ends. Ends that are not written are not given here.
MEASUREMENT KIND: Human MLR (ability to inhibit lymphocyte proliferation, cpm)

INSERT INTO measurements (substance, reading) VALUES
  ('CSSPNQVC (disulfide 1-8 (inferred)) [AT 133.1]', '++, +'),
  ('CMYPPPYYKAKC (disulfide 1-12 (inferred)) [AT 130.1]', '−, −'),
  ('CMYPPPYYRGGKC (disulfide 1-13 (inferred)) [AT 129.1]', '−, −');
